# targetOrTestSystem: T7 RNA polymerase (Escherichia phage T7)
# Sequence (P00573 whole entry): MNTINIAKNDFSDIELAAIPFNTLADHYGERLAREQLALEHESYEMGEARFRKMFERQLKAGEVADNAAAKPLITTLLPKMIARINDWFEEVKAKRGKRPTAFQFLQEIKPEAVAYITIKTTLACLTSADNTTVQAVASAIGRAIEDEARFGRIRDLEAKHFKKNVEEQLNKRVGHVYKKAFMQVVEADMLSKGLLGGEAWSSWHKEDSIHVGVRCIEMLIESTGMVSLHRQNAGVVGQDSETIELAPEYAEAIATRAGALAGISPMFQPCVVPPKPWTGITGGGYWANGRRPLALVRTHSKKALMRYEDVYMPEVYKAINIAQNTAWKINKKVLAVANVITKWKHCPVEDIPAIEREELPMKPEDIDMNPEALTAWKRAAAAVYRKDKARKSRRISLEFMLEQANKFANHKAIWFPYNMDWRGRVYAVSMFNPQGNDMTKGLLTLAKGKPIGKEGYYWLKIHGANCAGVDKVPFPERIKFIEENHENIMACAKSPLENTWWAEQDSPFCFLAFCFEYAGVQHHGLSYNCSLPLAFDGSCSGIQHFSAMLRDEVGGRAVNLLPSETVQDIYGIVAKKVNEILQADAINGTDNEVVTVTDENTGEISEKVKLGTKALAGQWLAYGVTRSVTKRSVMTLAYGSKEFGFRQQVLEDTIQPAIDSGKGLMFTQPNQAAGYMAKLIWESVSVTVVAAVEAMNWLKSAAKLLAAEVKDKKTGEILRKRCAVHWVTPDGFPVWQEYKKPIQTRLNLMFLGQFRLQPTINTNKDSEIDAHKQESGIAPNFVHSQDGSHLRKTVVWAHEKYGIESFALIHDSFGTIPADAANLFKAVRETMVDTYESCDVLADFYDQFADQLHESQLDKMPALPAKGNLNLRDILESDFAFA
# procedureSummary: IVT capping rate of mRNA by LC-MS
# Assay type: biochemical
# measurementSetup: LC-MS after RNase H cleavage
observedProperty: Capping rate (%)
The answer is to be given in %; state only the numeric part.

| compound | observedProperty | testResult |
| --- | --- | --- |
| COC[C@@H](COP(=O)(O)OP(=O)([O-])OP(=O)(O)OC[C@H]1O[C@@H](n2cnc3c(N)ncnc32)C(OC)C1OP(=O)(O)OC[C@H]1O[C@@H](n2cnc3c(=O)[nH]c(N)nc32)C(O)C1O)O[C@H](CO)n1c[n+](C)c2c(=O)[nH]c(N)nc21 (stereo in doubt) [Example 11] | Capping rate | 96.8 |
| COC1C(OP(=O)(O)OC[C@H]2O[C@@H](n3cnc4c(=O)[nH]c(N)nc43)C(O)C2O)[C@@H](COP(=O)(O)OP(=O)(O)OP(=O)([O-])OC[C@H]2O[C@@H](n3c[n+](C)c4c(=O)[nH]c(N)nc43)C(O)C2O)O[C@H]1n1cnc2c(N)ncnc21 (stereo in doubt) [Comparative Example 1, ^m7GpppA2′OMepG, reference compound] | Capping rate | 93.5 |
| COC[C@@H](O[C@@H](COP(=O)(O)OC[C@H](CO)O[C@H](CO)n1cnc2c(=O)[nH]c(N)nc21)COP(=O)(O)OP(=O)([O-])OP(=O)(O)OC[C@H](CO)O[C@H](CO)n1c[n+](C)c2c(=O)[nH]c(N)nc21)n1cnc2c(N)ncnc21 [Example 4] | Capping rate | 93.3 |

Here is the next item to consider.
Please give the measured Capping rate for this compound: COC1C(OP(=O)(O)OC[C@H](CO)O[C@H](CO)n2cnc3c(=O)[nH]c(N)nc32)[C@@H](COP(=O)(O)OP(=O)(O)OP(=O)([O-])OC[C@H]2O[C@@H](n3c[n+](C)c4c(=O)[nH]c(N)nc43)C(O)C2O)O[C@H]1n1cnc2c(N)ncnc21 (stereo partly shown) [Comparative Example 2, reference compound]
90.1
